# test_protocol: Acute toxicity in rats, oral administration (LD50)
# Format: in vivo
# settings: rat, in vivo, 800 mg/kg
quantity: mortality at 168 h
Please provide the amount together with its unit, number first.

Recorded result, Cl.Clc1ccccc1CN1CCCC1 [MRAP2, hydrochloride] , mortality at 168 h: 75%

###

# test_protocol: Acute toxicity in mice, endoperitoneal administration (LD50)
# Format: in vivo
# settings: mouse, in vivo, ip, 75 mg/kg
quantity: mortality at 168 h
Please make sure the unit comes right after the number.

So, Cl.Clc1ccccc1CN1CCCC1 [MRAP2, hydrochloride] ? Its mortality at 168 h was 0%

###

# test_protocol: Acute toxicity in rats, oral administration (LD50)
# Type: in vivo
# settings: rat, in vivo, 500 mg/kg
quantity: mortality at 168 h (%)
All answers are understood in %, so give the number only.

Consider Cl.Clc1ccccc1CN1CCCC1 [MRAP2, hydrochloride] . Its measured mortality at 168 h is 20

###

# test_protocol: Acute toxicity in rats, endoperitoneal administration (LD50)
# Assay type: in vivo
# settings: rat, in vivo, ip, 300 mg/kg
quantity: mortality at 168 h (%)
The figure you give is taken to be in %; do not add the unit.

Field mortality at 168 h (entry Cl.Clc1ccccc1CN1CCCC1 [MRAP2, hydrochloride] ) reads 85

###

# test_protocol: Acute toxicity in mice, endoperitoneal administration (LD50)
# Assay type: in vivo
# settings: mouse, in vivo, ip, 100 mg/kg
quantity: mortality at 168 h

The recorded mortality at 168 h for entry Cl.Clc1ccccc1CN1CCCC1 [MRAP2, hydrochloride] equals 10%

###

# test_protocol: Acute toxicity in mice, endoperitoneal administration (LD50)
# Assay type: in vivo
# settings: mouse, in vivo, ip, 400 mg/kg
quantity: mortality at 168 h (%)
Field format: number, assumed %, no unit text.

Note to self: mortality at 168 h recorded for Cl.Clc1ccccc1CN1CCCC1 [MRAP2, hydrochloride] was 100

###

# test_protocol: Acute toxicity in rats, endoperitoneal administration (LD50)
# Assay type: in vivo
# settings: rat, in vivo, ip, 200 mg/kg
quantity: mortality at 168 h (%)
Just the number please, in %, no unit attached.

The compound listed as Cl.Clc1ccccc1CN1CCCC1 [MRAP2, hydrochloride] has a reported mortality at 168 h of 55

###

# test_protocol: Acute toxicity in rats, oral administration (LD50)
# Format: in vivo
# settings: rat, in vivo, 600 mg/kg
quantity: mortality at 168 h (%)
Record the value in %, omitting the unit from your answer.

Entry Cl.Clc1ccccc1CN1CCCC1 [MRAP2, hydrochloride] ; mortality at 168 h = 40

###

# test_protocol: Acute toxicity in mice, endoperitoneal administration (LD50)
# Format: in vivo
# settings: mouse, in vivo, ip, single administration, 7 days, 95% limits 105-130
quantity: LD50 at 168 h (mg/kg)
Report as a plain number; the unit mg/kg is understood.

Kindly note the recorded LD50 at 168 h for Cl.Clc1ccccc1CN1CCCC1 , which is 116

###

# test_protocol: Acute toxicity in rats, endoperitoneal administration (LD50)
# Assay type: in vivo
# settings: rat, in vivo, ip, 50 mg/kg
# Protocol: 200 albino rats, 100 male and 100 female, of the Wistar strain and weighing 130-150 grams were divided into groups of 10 animals each. After being caged for some days at constant temperature (21°±1° C.) and humidity (60±5%), the animals were fasted for 24 hours before treatment. […] Teh LD50 was evaluated for each method of administration using the Litchfield and Wilcoxon method, based on the percentage mortality recorded in each group of rats during the seven days following treatment. […]
quantity: mortality at 168 h (%)
Just the number please, in %, no unit attached.

mortality at 168 h for Cl.Clc1ccccc1CN1CCCC1 [MRAP2, hydrochloride] is 0
